Test system: P12-Ichikawa
procedure details: cell viability relative to DMSO control; higher = less cytotoxic
measurement setup: HPLM + 10% dialyzed FBS; 48 h; 1.71 µM
measurement type: cell viability (%)
Express the result in % but write the number alone.

Exercise: // cell viability lookup, key: CC(NCc1ccc2c(c1)[nH]/c(=N\C(=O)c1ccc(-c3cn[nH]c3)s1)n2CC(C)(C)O)C(C)(C)C (configuration not stated)
Key: 65

Exercise: Entry COc1cccc2c1C(=O)c1c(O)c3c(c(O)c1C2=O)C[C@@](O)(C(C)=O)C[C@@H]3O[C@H]1C[C@H](N)[C@H](O)[C@H](C)O1 has what cell viability?
Key: 7.98

Exercise: If you can, please state the reported cell viability value of CN[C@@H]1C[C@H]2O[C@@](C)([C@@H]1OC)n1c3ccccc3c3c4c(c5c6ccccc6n2c5c31)C(=O)N[C@H]4O .
Key: 22.5

Exercise: What cell viability value was documented for this molecule, CC(C)C[C@H](NC(=O)[C@H](Cc1ccccc1)NC(=O)c1cnccn1)B(O)O ?
Key: 2.46

Exercise: Reported cell viability for CN(C)CCCNC(=O)c1ccc(-c2cc(O)c3ncccc3c2)cc1 : what is it?
Key: 104

Exercise: Which cell viability value belongs to Cc1[nH]c(/C=C2\C(=O)Nc3ccc([S+](=O)([O-])Cc4c(Cl)cccc4Cl)cc32)c(C)c1C(=O)N1CCC[C@@H]1CN1CCCC1 ?
Key: 97.9

Exercise: What cell viability value was documented for this molecule, COc1ccc2c(c1OC)CN1CCc3cc4c(cc3C1C2)OCO4 (configuration not stated) ?
Key: 77
